Quick list: cell viability per entry.
- Tested on: NOMO1
- test-name: cell viability relative to DMSO control; higher = less cytotoxic
- measurement-setup: HPLM + 10% dialyzed FBS; 48 h; 1.71 µM
endpoint-name: cell viability (%)

compound: CC(C)C[C@H](NC(=O)CNC(=O)c1cc(Cl)ccc1Cl)B(O)O
experimental-target: NOMO1
observed: 9.39

compound: CC(C)c1ccc(Cn2ccc3c4c(N)nc(NC5CC5)nc4ccc32)cc1
experimental-target: NOMO1
observed: 53.1

compound: C[C@H]1[C@@H](C(=O)C[C@H]2O[C@@H]3O[C@]4(C)CC[C@H]5[C@H](C)CC[C@@H]([C@H]2C)[C@@]35OO4)O[C@@H]2O[C@]3(C)CC[C@H]4[C@H](C)CC[C@@H]1[C@@]24OO3
experimental-target: NOMO1
observed: 102

compound: CCC(=C/[C@H](C)C/C=C/C(C)=C/[C@@H](C)C(=O)[C@@H](C)[C@H](O)[C@@H](C)C/C(C)=C/C(=O)O)/C=C/[C@@H]1OC(=O)C=C[C@@H]1C
experimental-target: NOMO1
observed: 83.8

compound: CNC[C@H](O)c1cccc(O)c1
experimental-target: NOMO1
observed: 110

compound: O=C(Oc1ccc([N+](=O)[O-])cc1)N1CCC(C(O)(c2ccc3c(c2)OCO3)c2ccc3c(c2)OCO3)CC1
experimental-target: NOMO1
observed: 88.5

compound: CC[C@H](NC(=O)[C@H](C)NC)C(=O)N1C[C@@H](O)C[C@H]1Cc1c(-c2[nH]c3cc(F)ccc3c2C[C@@H]2C[C@H](O)CN2C(=O)[C@H](CC)NC(=O)[C@H](C)NC)[nH]c2cc(F)ccc12
experimental-target: NOMO1
observed: 67.3

compound: COc1ccc(C2Sc3ccccc3N(CCN(C)C)C(=O)C2OC(C)=O)cc1 (stereo unspecified)
experimental-target: NOMO1
observed: 120

compound: COc1ccc(Nc2nccc(NCCO)n2)cc1
experimental-target: NOMO1
observed: 99.5

compound: O=C1Nc2ccc(I)cc2/C1=C/c1cc(Br)c(O)c(Br)c1
experimental-target: NOMO1
observed: 99.9

compound: C=CC(=O)Nc1cccc(Nc2nc(NC3CCC(N(C)C)CC3)nc3c2ncn3C(C)C)c1 (stereo unspecified)
experimental-target: NOMO1
observed: 73.8

compound: COc1ccc2c(c1)c(CC(=O)OCC(=O)O)c(C)n2C(=O)c1ccc(Cl)cc1
experimental-target: NOMO1
observed: 114

compound: COc1ccc([C@@H]2CC(=O)c3c(O)cc(O[C@@H]4O[C@H](CO[C@@H]5O[C@@H](C)[C@H](O)[C@@H](O)[C@H]5O)[C@@H](O)[C@H](O)[C@H]4O)cc3O2)cc1O
experimental-target: NOMO1
observed: 123

compound: CN[C@@H](C)C(=O)N[C@H]1CN(C(=O)CC(C)C)CC[C@H]2CC[C@@H](C(=O)NC(c3ccccc3)c3ccccc3)N2C1=O
experimental-target: NOMO1
observed: 54.5

compound: Cn1c(=O)n(-c2ccc(C(C)(C)C#N)cc2)c2c3cc(-c4cnc5ccccc5c4)ccc3ncc21
experimental-target: NOMO1
observed: 37.4

compound: COc1ccc2[nH]c([S+]([O-])Cc3ncc(C)c(OC)c3C)nc2c1 (stereo unspecified)
experimental-target: NOMO1
observed: 89.9
